Entry source: the supplement of paper PMC8960247

System: 621-103 (TSC2-rescued);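 further: immortalized renal angiomyolipoma cells stably carrying empty vector or TSC2, dosed in 384-well plates in DMEM, viability normalized to vehicle-treated wells within each plate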
Experiment: relative viability vs DMSO; higher = less cytotoxic
Settings: 0.001 µM; serum: 10% FBS; 72 h
Counter-ions that a name gives are not always drawn.
reported-property: relative viability (%)
Provide only the numeric value, understood in %.

Here's what some known entries look like.
NC(=O)c1cccc(-c2cccc(OC(=O)NC3CCCCC3)c2)c1 = 106
O=c1cc(-c2ccc(O)cc2)oc2cc(O)cc(O)c12 = 128
Nc1cc(C(F)(F)F)c(-c2cc(N3CCOCC3)nc(N3CCOCC3)n2)cn1 = 112
COc1ccccc1N1CCN(CCN(C(=O)C2CCCCC2)c2ccccn2)CC1 = 99
CCN[C@H]1C[C@H](C)S(=O)(=O)c2sc(S(N)(=O)=O)cc21 [Dorzolamide HCl] = 103

Briefly, relative viability measured for CS(=O)(=O)c1ccc(C(=O)Nc2ccc(Cl)c(-c3ccccn3)c2)c(Cl)c1 : 100

Briefly, relative viability measured for Cc1cc(OCCCS(C)(=O)=O)cc(C)c1-c1cccc(COc2ccc3c(c2)OC[C@H]3CC(=O)O)c1 : 102

Briefly, relative viability measured for CN(C)Cc1cccc(N=C(c2ccccc2)c2c(O)[nH]c3cc(C(=O)N(C)C)ccc23)c1 : 99.6

Briefly, relative viability measured for O=C(c1ccc(F)cc1)C1CCN(CCn2c(=O)[nH]c3ccccc3c2=O)CC1 : 103

Briefly, relative viability measured for Cc1ccc(F)c(NC(=O)Nc2ccc(-c3cccc4[nH]nc(N)c34)cc2)c1 : 100

Briefly, relative viability measured for Nc1[nH]cnc2ncnc1-2 : 98.5

Briefly, relative viability measured for CC(C)C(=O)Oc1ccc(CO)cc1[C@H](CCN(C(C)C)C(C)C)c1ccccc1 [Fesoterodine fumarate (Toviaz)] : 105

---

System: 621-102 (TSC2-deficient);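 further: renal angiomyolipoma cell lines screened in 384-well plates, viability normalized per plate to DMSO-treated cells, each plate carrying 50 nM rapamycin and 1 µM staurosporine controls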
Experiment: relative viability vs DMSO (fraction); higher = less cytotoxic
Details: 40 nM; serum: 0.1% FBS; 72 h
reported-property: relative viability
Enter the number alone.

Here's what some known entries look like.
CC(C)(C)c1cnc(CSc2cnc(NC(=O)C3CCNCC3)s2)o1 = 0.112
CN(C)CC[C@H](CSc1ccccc1)Nc1ccc(S(=O)(=O)NC(=O)c2ccc(N3CCN(Cc4ccccc4-c4ccc(Cl)cc4)CC3)cc2)cc1[N+](=O)[O-] [ABT-737] = 0.175
CC(C)C[C@H](NC(=O)CNC(=O)c1cc(Cl)ccc1Cl)B(O)O [MLN2238] = 0.243
CCN1CCN(Cc2ccc(-c3cc4c(N[C@H](C)c5ccccc5)ncnc4[nH]3)cc2)CC1 [AEE788] = 0.64
Cn1cc(-c2ccc3nnc(Sc4ccc5ncccc5c4)n3n2)cn1 [SGX-523] = 0.984
O=C(/C=C/c1ccc(CN(CCO)CCc2c[nH]c3ccccc23)cc1)NO [LAQ824] = 0.173
CCOc1ccn(-c2ccc(F)cc2)c(=O)c1C(=O)Nc1ccc(Oc2ccnc(N)c2Cl)c(F)c1 = 0.991
O=C(/C=C/c1cccc(S(=O)(=O)Nc2ccccc2)c1)NO [Belinostat(PXD101)] = 0.923
Nc1nc(Cl)nc2c1ncn2[C@@H]1O[C@H](CO)[C@@H](O)[C@@H]1F [Clofarabine] = 0.0836
NC(=O)Nc1cc(-c2cccc(F)c2)sc1C(=O)N[C@H]1CCCNC1 [AZD7762] = 0.0116

Briefly, relative viability measured for Nc1ccn([C@@H]2O[C@H](CO)[C@@H](O)[C@@H]2O)c(=O)n1 [Cytarabine] : 0.505

Briefly, relative viability measured for CC(C)C[C@@H](C(=O)N[C@H](C(=O)OC1CCCC1)c1ccccc1)[C@H](O)C(=O)NO [CHR-2797] : 0.512
